# System: SF-268 CNS
# assay.name: NCI-60 one-dose screen, 48 h (100 = growth as untreated, 0 = no growth, -100 = all killed)
# reported.conditions: 10 µM unless noted
Compounds without any hit were thinned out: in the full panel of roughly 83,000, 20% have a hit. The source made the active and inactive calls. How the source made its calls: active means growth percent below 10; inactive means the rest.
measured.parameter: growth

Asked: // query growth value for entry CC1=NN(c2cccc(Cl)c2)C(=O)/C1=C\C=C\c1ccccc1
Given back: 75.5% (inactive)

Asked: Would you mind telling me what growth value was observed for CC(=O)Oc1ccccc1C(=O)N(Cc1ccc2c(Cl)cc(Cl)c(O)c2n1)c1ccccc1 ?
Given back: 39.8% (inactive)

Asked: Consider the compound shown here: CCCN1C2CCC1/C(=C\c1ccc(OC)cc1)C(=O)/C2=C/c1ccc(OC)cc1 What is its recorded growth?
Given back: 83.9% (inactive)

----------
# Test system: HS 578T breast
# assay.name: NCI-60 one-dose screen, 48 h (100 = growth as untreated, 0 = no growth, -100 = all killed)
# reported.conditions: 10 µM unless noted
The panel holds about 83,000 compounds, 20% with a hit somewhere; the sample as a whole holds those more often.
What growth was measured for each of the following?
Quick reminder: number only, in %, skip the unit.

Asked: Requested read-out: growth. Entry: COc1cc(/C=C/c2cc(/C=C/c3ccc(O)c(OC)c3)n(C(=O)Nc3ccc(C)cc3C)n2)ccc1O
Given back: -15

Asked: Requested field: growth. Item: Cc1ccc2nc(/C=C/c3ccc(N(C)C)cc3)cc(C)c2c1
Given back: 34.9

Asked: Entry O=c1cc(-c2nccc3c2[nH]c2ccccc23)c2cc(Cl)ccc2o1 has what growth?
Given back: 37.3

Asked: Which growth reading was recorded for the compound COc1cc2c(c(OC)c1OC)C(=O)CC(c1cccc(C(=O)Nc3ccc(Br)cc3)c1)O2 (centres undefined) ?
Given back: 91.4

Asked: Query: growth; subject: C#C[C@]1(O)CC[C@H]2[C@@H]3CC=C4c5sc(-c6ccccc6)nc5CC[C@]4(C)[C@H]3CC[C@@]21C
Given back: 62

Asked: I have this compound here, CCOC(=O)C1=C(c2ccccc2)N=C2SC=C(c3cccc([N+](=O)[O-])c3)N2C1c1ccc(O)cc1 (centres undefined) , and I need its recorded growth.
Given back: 102

Asked: Can you look up the measured growth of [2H]C([2H])([2H])Oc1c(F)cccc1/C=C/C(=O)/C=C(O)/C=C/c1cccc(F)c1OC([2H])([2H])[2H] for me?
Given back: 112

Asked: Would you mind telling me what growth value was observed for CSc1nc(CC(C)C)c(C#N)c(=O)n1C ?
Given back: 58.4

Asked: # lookup: growth of CCCN1C(=O)N(CCC)C2C1NC(=S)N2/N=C/C=C/c1ccccc1OC (centres undefined)
Given back: 9.95

----------
# Test system: HS 578T breast
# assay.name: NCI-60 one-dose screen, 48 h (100 = growth as untreated, 0 = no growth, -100 = all killed)
# reported.conditions: 10 µM unless noted
Compounds without any hit were thinned out: in the full panel of roughly 83,000, 20% have a hit. Activity calls are given as the source filed them. How the source made its calls: active means growth percent below 10; inactive means the rest.
measured.parameter: growth

Asked: Requested read-out growth, target or system HS 578T breast, entry Oc1cccc2c1NCCC2
Given back: 24.3% (inactive)

Asked: Find the measured growth: item CCN(CC)CCN1C(=O)c2c(c(C)c3c(oc4cc(OC)ccc43)c2C)C1=O , target or system HS 578T breast.
Given back: 118% (inactive)

Asked: Kindly state the measured growth obtained for Cc1ccc(C(F)(F)F)cc1N1CCN(C(=O)[C@H]2C[C@H]2c2ccc(C(F)(F)F)nc2)CC1 with HS 578T breast.
Given back: 91.4% (inactive)

Asked: Under HS 578T breast: growth value of CCCCC1=C(Br)C(=O)c2ncccc2C1=O ?
Given back: 104% (inactive)

Asked: Item CN1CCN(Cc2ccc(NC(=O)c3cncc(C#Cc4c(N)ncc5cc(F)ccc45)c3)cc2C(F)(F)F)CC1 with HS 578T breast - growth?
Given back: 31.8% (inactive)

Asked: # returns recorded growth (system: HS 578T breast) for Cn1ccnc1C(=O)/C=C/c1ccc(C(=O)Nc2ccccc2F)cc1
Given back: 17.1% (inactive)

Asked: HS 578T breast / growth / CCN1C(=O)N(CC)C2C1NC(=S)N2/N=C/C=C/c1ccccc1 (stereo unspecified) : value?
Given back: 13.6% (inactive)

Asked: Provide the documented growth with HS 578T breast as the system for O=C1OCC2=C1C(c1cccc(F)c1)c1cc3c(cc1N2CCO)CCC3 (stereo unspecified)
Given back: 41.2% (inactive)

Asked: // map CN(C)c1ccc(/C=N/NC(=O)CSc2nc3sc4c(c3c(=O)n2-c2ccccc2)CCCCC4)cc1 to recorded growth (system: HS 578T breast)
Given back: 23.9% (inactive)

Asked: Param readout = growth; param system = HS 578T breast; param query = Cc1nc2ccccc2c(/C=C/c2ccc(Cl)cc2)c1C(=O)/C=C/c1ccccc1 ; response: value
Given back: 25% (inactive)

Asked: What measured growth is associated with COc1cc(-c2ccc(-c3ccc(C(=N)N)s3)s2)cc(OC)c1OC on HS 578T breast?
Given back: 44.1% (inactive)

Asked: Field: growth (HS 578T breast). Entry: Cc1nn(-c2ccccc2)c(Oc2ccccc2)c1/C=N/NC(=O)Cn1c(=O)sc2ccccc21
Given back: 67.6% (inactive)

Asked: Which measured growth belongs to C=C(c1ccc(C(=O)O)c(F)c1)c1cc2c(cc1C)C(C)(C)C=CC2(C)C , tested on HS 578T breast?
Given back: 61.9% (inactive)

Asked: Give the reported growth for Oc1ccc(Cc2ccc(O)c3ncccc23)c2cccnc12 (system: HS 578T breast).
Given back: 36.6% (inactive)

Asked: Give recorded growth with HS 578T breast for the following compound: CCOC(=O)CSc1nc2sc3c(c2c(=O)n1-c1ccccc1)CCCCC3
Given back: 103% (inactive)

Asked: What growth appears in the records for this compound with HS 578T breast? CC1=C(C(=O)OCc2ccccc2)C(c2ccc3c(c2)OCO3)n2c(nc3ccccc32)N1 (stereo unspecified)
Given back: 0.752% (active)

Asked: Notebook entry, HS 578T breast assay: growth of O=C1N/C(=N/N=C(c2ccccc2)c2ccccc2)S/C1=C\c1ccc(Br)cc1 = ?
Given back: 95% (inactive)

Asked: What growth appears in the records for this compound with HS 578T breast? CCn1c2ccccc2c2cc(C(O)c3cccc4ncccc34)ccc21 (stereo unspecified)
Given back: 21.3% (inactive)

Asked: Give growth (HS 578T breast) of the following compound: COC(=O)CNC(=O)c1ccc(NC(=O)c2[nH]c(C)c(Cl)c2Cl)c(O[C@H]2CCNC2)c1
Given back: 92.8% (inactive)

Asked: Fill in the recorded growth for this compound, with HS 578T breast as test system: COc1ccc(/C=N/NC(=O)Cn2nnc3ccccc32)cc1
Given back: 77.6% (inactive)

Asked: Quick check: growth on HS 578T breast, item COc1cccc(-c2nn(-c3ccccc3)cc2-c2ccnc(-c3cccnc3)c2)c1 ?
Given back: 120% (inactive)

Asked: Hi! What's the reported growth for COc1cc2c(cc1OC)CC[N+](CCC[N+](C)(C)C)=C2 on HS 578T breast?
Given back: 111% (inactive)

Asked: Short answer please: growth, HS 578T breast, entry O=C(NCCN1CCOCC1)c1cncnc1Nc1ccc2c(ccn2Cc2ccccn2)c1
Given back: 103% (inactive)

Asked: Form field - read-out: growth; system: HS 578T breast; submitted item: Nc1ncc(-c2ccc3ncnc(N4CCc5cc(F)c(Cl)cc54)c3c2)cn1
Given back: 13.2% (inactive)

Asked: Item: Cn1cc(-c2csc(-c3cn(CCO)c4ccc(F)cc34)n2)c2cccnc21 Test system: HS 578T breast Read-out: growth Value: ?
Given back: 79.8% (inactive)

Asked: Request: growth, test system HS 578T breast, entry CN(C)c1ccc(/C=C/C2=[N+](C)c3ccccc3C2(C)C)cc1
Given back: 43.3% (inactive)

Asked: Reported growth for HS 578T breast, given C[C@@H]1N=C(c2ccc(Cl)cc2Cl)Nc2nc3ccccn3c2C1=O ?
Given back: 52% (inactive)

Asked: Provide value of growth for this record tested with HS 578T breast: COc1ccc(-c2csc(NC(=O)CSc3nc(C)cc(=O)[nH]3)n2)cc1
Given back: 96.8% (inactive)

Asked: Hi! What's the reported growth for COc1cccc(CNc2nnc(C)c(C)n2)c1O on HS 578T breast?
Given back: 108% (inactive)

Asked: Give the reported growth for NCCCCCNc1noc(Cc2c[nH]c3cc(Br)ccc23)n1 (system: HS 578T breast).
Given back: 19.8% (inactive)

Asked: Give HS 578T breast growth for CNC1=C(Br)C(=O)c2c(C(=O)OC)c(C)nc(C)c2C1=O
Given back: 72.4% (inactive)

Asked: # returns recorded growth (system: HS 578T breast) for Cc1ccc(-c2nn(CC(=O)N3CCOCC3)c(N)c2C#N)cc1
Given back: 93.1% (inactive)

Asked: Tell me reported growth for C[C@H]1c2ccccc2CN1CCCOc1cc2c(cc1OCC1CC1)C1(CCCC1)C(N)=N2 , tested with HS 578T breast.
Given back: 56% (inactive)

Asked: I'm curious: which growth was measured for COC(=O)[C@H]1Cc2c([nH]c3ccccc23)[C@H](c2ccc3c(c2)OCO3)N1 tested on HS 578T breast?
Given back: 102% (inactive)

Asked: Test system HS 578T breast; read-out growth; what value for CCN1C(=O)N(CC)C2C1NN=c1s/c(=C\c3ccc(F)cc3)c(=O)n12 (stereo unspecified) ?
Given back: 12.4% (inactive)

Asked: API: value(readout= growth, system= HS 578T breast, query= CCN1C(=O)N(CC)C2C1NN=c1s/c(=C\c3ccccc3)c(=O)n12 (stereo unspecified) )
Given back: 16.8% (inactive)

Asked: # value lookup — system HS 578T breast, readout growth, item CCOC(=O)C1=C(C)N(C)C(=O)N(C)C1c1ccccc1 (stereo unspecified)
Given back: 108% (inactive)

Asked: Field: growth (HS 578T breast). Entry: O=C(CSc1nnc(-c2cc(-c3ccc(Cl)cc3)nc3ccccc23)n1-c1ccccc1)Nc1ccc(Cl)cc1
Given back: 109% (inactive)

Asked: For HS 578T breast, provide growth of CCc1ccc(Cc2cnc(NC(=O)c3cc(C)oc3C)s2)cc1 please.
Given back: 23.6% (inactive)

Asked: Form entry - test system: HS 578T breast; read-out: growth; compound: COc1ccc(C(=O)/C=C/c2ccc(Cl)cc2)cc1S(N)(=O)=O
Given back: 91.5% (inactive)

Asked: Query growth on HS 578T breast for C=C(C[n+]1ccccc1)[C@@H]1CC[C@]2(C(=O)OC)CC[C@]3(C)[C@H](CC[C@@H]4[C@@]5(C)CCC(=O)C(C)(C)[C@@H]5CC[C@]43C)[C@@H]12
Given back: 87.9% (inactive)
